# subject_of_test: CYP3A4 (Homo sapiens, UniProt P08684)
# Sequence (P08684 whole entry): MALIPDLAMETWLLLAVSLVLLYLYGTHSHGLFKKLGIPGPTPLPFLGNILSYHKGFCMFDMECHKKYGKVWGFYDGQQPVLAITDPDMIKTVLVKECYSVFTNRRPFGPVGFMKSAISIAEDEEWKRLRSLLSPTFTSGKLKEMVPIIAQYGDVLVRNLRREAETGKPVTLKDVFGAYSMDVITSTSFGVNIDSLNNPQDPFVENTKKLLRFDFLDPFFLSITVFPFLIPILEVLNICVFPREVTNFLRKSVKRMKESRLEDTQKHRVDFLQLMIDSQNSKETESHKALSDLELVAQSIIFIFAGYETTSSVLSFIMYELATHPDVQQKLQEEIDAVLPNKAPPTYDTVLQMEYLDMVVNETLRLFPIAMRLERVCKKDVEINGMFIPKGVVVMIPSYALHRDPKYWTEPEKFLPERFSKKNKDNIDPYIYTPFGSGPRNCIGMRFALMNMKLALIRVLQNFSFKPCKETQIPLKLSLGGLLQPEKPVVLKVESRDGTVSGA
# measurement_protocol: Inhibition of CYP3A4 at 10 uM
# Format: ADME
metric_name: inhibition at 10 µM

• NC(=O)C[S+]([O-])C(c1ccccc1)c1ccccc1 (stereo unspecified) [MODAFINIL] = < 10%

* * *

# subject_of_test: CYP2D6 (Homo sapiens, UniProt P10635)
# Sequence (P10635 whole entry): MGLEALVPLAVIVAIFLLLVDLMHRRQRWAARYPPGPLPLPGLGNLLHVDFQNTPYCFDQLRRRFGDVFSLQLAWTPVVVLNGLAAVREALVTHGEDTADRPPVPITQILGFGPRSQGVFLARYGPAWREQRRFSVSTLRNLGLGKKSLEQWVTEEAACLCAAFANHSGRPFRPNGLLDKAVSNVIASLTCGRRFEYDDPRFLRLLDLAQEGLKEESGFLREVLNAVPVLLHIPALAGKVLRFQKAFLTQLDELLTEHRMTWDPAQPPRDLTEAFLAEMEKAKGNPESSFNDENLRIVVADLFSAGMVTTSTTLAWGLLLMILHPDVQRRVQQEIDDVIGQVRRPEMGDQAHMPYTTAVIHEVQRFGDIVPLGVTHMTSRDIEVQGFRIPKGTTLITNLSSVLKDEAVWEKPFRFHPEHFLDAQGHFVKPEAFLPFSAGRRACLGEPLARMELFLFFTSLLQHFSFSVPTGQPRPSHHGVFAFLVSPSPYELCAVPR
# measurement_protocol: Inhibition of CYP2D6 at 10 uM
# Format: ADME
metric_name: inhibition at 10 µM

- NC(=O)C[S+]([O-])C(c1ccccc1)c1ccccc1 (stereo unspecified): < 10%

* * *

# subject_of_test: Sodium-dependent serotonin transporter (Rattus norvegicus)
# Sequence (P31652 whole entry): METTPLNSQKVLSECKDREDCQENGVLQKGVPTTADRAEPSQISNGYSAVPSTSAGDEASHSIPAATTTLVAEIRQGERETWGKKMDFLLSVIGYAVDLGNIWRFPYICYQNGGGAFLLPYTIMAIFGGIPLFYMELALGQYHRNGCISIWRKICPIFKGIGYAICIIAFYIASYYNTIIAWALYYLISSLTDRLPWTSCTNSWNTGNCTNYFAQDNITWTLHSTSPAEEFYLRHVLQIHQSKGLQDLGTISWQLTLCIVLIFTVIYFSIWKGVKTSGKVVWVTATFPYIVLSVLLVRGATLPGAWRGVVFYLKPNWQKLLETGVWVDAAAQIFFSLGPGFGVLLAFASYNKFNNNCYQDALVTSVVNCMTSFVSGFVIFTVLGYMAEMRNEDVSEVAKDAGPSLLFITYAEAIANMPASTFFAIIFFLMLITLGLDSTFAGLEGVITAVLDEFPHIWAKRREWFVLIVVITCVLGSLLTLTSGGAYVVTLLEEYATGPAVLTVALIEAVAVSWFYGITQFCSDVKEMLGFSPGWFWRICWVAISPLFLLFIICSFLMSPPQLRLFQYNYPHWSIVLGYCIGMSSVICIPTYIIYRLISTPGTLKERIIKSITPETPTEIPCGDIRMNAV
# measurement_protocol: Inhibition of rat SERT-mediated serotonin reuptake
Recorded IC50 for the following compounds
metric_name: IC50 (µM)

• NC(=O)C[S+]([O-])Cc1ccccc1Oc1ccc(Cl)c(Cl)c1 (single isomer, unassigned; (+)) = 33
• NC(=O)C[S+]([O-])Cc1ccccc1Oc1ccc(Cl)c(Cl)c1 (single isomer, unassigned; (-)) = 31

* * *

# subject_of_test: Transporter (Rattus norvegicus, UniProt Q63380)
# Sequence (Q63380 whole entry): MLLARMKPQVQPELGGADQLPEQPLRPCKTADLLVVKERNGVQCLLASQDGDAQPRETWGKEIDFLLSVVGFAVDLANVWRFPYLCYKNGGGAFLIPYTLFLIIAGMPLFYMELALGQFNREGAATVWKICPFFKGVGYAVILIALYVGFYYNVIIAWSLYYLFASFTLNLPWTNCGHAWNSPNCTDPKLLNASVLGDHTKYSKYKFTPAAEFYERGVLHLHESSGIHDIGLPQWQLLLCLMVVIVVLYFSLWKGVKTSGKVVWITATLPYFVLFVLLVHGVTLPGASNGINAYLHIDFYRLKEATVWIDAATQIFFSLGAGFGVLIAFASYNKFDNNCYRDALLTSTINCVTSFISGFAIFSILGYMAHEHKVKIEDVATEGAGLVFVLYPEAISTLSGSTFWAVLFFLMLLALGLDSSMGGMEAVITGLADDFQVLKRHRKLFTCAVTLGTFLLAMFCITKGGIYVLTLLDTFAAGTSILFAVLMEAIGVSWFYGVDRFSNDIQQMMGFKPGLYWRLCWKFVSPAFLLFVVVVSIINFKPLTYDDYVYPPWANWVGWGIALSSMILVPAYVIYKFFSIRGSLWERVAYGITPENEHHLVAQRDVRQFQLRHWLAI
# measurement_protocol: Inhibition of rat NET-mediated norepinephrine reuptake
metric_name: IC50 (µM)

- NC(=O)C[S+]([O-])Cc1ccccc1Oc1ccc(Cl)c(Cl)c1 (single isomer, unassigned; (+)): 3.1
- NC(=O)C[S+]([O-])Cc1ccccc1Oc1ccc(Cl)c(Cl)c1 (single isomer, unassigned; (-)): 1.3

* * *

# subject_of_test: Sodium-dependent dopamine transporter (Rattus norvegicus, UniProt P23977)
# Sequence (P23977 whole entry): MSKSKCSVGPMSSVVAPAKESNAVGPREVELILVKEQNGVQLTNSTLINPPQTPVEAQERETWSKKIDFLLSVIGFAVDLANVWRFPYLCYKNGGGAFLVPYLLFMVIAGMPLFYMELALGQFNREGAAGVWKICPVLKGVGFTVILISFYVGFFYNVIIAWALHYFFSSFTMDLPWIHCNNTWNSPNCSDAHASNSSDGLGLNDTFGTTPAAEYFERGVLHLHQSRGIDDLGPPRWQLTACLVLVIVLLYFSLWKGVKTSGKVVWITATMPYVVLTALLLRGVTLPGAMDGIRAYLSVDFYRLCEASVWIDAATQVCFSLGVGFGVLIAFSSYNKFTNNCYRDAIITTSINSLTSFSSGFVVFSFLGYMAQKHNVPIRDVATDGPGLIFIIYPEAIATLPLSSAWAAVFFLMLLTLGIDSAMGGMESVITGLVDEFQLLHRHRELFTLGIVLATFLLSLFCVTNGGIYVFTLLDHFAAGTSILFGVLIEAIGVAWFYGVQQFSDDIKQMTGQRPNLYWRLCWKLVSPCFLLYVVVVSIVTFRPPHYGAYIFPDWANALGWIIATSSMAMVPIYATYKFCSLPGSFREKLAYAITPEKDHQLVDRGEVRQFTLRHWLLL
# measurement_protocol: Inhibition of rat DAT-mediated dopamine reuptake
metric_name: IC50 (µM)

• NC(=O)C[S+]([O-])Cc1ccccc1Oc1ccc(Cl)c(Cl)c1 (single isomer, unassigned; (-)) = 1.1
• NC(=O)C[S+]([O-])Cc1ccccc1Oc1ccc(Cl)c(Cl)c1 (single isomer, unassigned; (+)) = 1.1

* * *

# subject_of_test: Sodium-dependent dopamine transporter (Rattus norvegicus, UniProt P23977)
# measurement_protocol: Inhibition of rat DAT
Recorded IC50 for the following molecules
metric_name: IC50 (nM)

• NC(=O)C[S+]([O-])Cc1ccccc1Oc1ccc(Cl)c(Cl)c1 (single isomer, unassigned; (+)) = 900
• NC(=O)C[S+]([O-])Cc1ccccc1Oc1ccc(Cl)c(Cl)c1 (single isomer, unassigned; (-)) = 200

* * *

# subject_of_test: Cytochrome P450 2C19 (Homo sapiens, UniProt P33261)
# Sequence (P33261 whole entry): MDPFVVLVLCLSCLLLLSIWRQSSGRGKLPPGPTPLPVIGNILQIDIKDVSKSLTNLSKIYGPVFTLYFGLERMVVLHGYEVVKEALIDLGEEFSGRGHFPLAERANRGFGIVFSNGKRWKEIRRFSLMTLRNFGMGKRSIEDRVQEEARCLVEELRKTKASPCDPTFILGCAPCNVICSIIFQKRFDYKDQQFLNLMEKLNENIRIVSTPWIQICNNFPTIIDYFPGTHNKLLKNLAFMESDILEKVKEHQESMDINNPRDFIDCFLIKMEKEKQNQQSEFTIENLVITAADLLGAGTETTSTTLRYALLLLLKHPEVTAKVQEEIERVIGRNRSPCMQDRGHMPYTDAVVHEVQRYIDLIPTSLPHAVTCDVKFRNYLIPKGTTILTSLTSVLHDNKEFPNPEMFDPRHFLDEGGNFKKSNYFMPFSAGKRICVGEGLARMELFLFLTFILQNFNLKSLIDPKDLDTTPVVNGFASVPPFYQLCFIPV
metric_name: IC50

* NC(=O)C[S+]([O-])Cc1ccccc1Oc1ccc(Cl)c(Cl)c1 (single isomer, unassigned; (-)) | 30 µM
